TEST NAME: Identification of proteins required for the processing of the EWS-FLI1 nascent transcript;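 further: robust z of luciferase light less the median z of siRNAs with the same seed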
CONDITION INFO: TC32 Ewing sarcoma NR0B1-luc vs CMV-luc (EWS-FLI1 target promoter against control promoter), 48 h; screened at 20 nM (by protocol)
In all, about 59,000 sequences were measured (the read-out: median about -0.00055, lowest 2% from about -2 on). Only a selection was taken, and the lowest values are over-represented in it overall.
Quick reference for seed-corrected z-score among some sequences
RECORDED ENDPOINT: seed-corrected z-score

>  <SEQUENCE>
ACACUGACAAAUGUUAGGC against VWDE

>  <READOUT NUMBER>
-2.22

$$$$
>  <SEQUENCE>
UGUAGACAAAGUACUGGGC against CNTN2

>  <READOUT NUMBER>
-0.261

$$$$
>  <SEQUENCE>
UUUACGAAGUUUUUGAUAG against EML1

>  <READOUT NUMBER>
-0.287

$$$$
>  <SEQUENCE>
UUUGUUGCAGAAUACAUAG against CTH

>  <READOUT NUMBER>
-13.9

$$$$
>  <SEQUENCE>
UUCUGAUUCUGCUUGUUGG against MPRIP

>  <READOUT NUMBER>
-2.12

$$$$
>  <SEQUENCE>
UGUAUCUCGAUCUUCACCG against STRN

>  <READOUT NUMBER>
-0.0881

$$$$
>  <SEQUENCE>
UUCCUUCCAGCUGUAGGCC against CHRM1

>  <READOUT NUMBER>
-2.17

$$$$
>  <SEQUENCE>
UAAGUUGCACUUUCCAUUC against ZNF266

>  <READOUT NUMBER>
-3.46

$$$$
>  <SEQUENCE>
UAUCGAACCAACCAGCAUC against MFSD4A

>  <READOUT NUMBER>
1.1

$$$$
>  <SEQUENCE>
UGAACUAUUGGAAUGUCUC against SEC11C

>  <READOUT NUMBER>
0.165

$$$$
>  <SEQUENCE>
UGAACUUGCACACUUGAGU against KLK7

>  <READOUT NUMBER>
0.253

$$$$
>  <SEQUENCE>
UUCCUGAUUAGUAAUGUCG against RAB5B

>  <READOUT NUMBER>
0.136

$$$$
>  <SEQUENCE>
UGAGCUCUGAGAAUUGAGG against POM121

>  <READOUT NUMBER>
0.483

$$$$
>  <SEQUENCE>
UUAAGAGUGACUCAAUUUG against MGAT2

>  <READOUT NUMBER>
-0.219

$$$$
>  <SEQUENCE>
AAAGUAGGACGAGAUGCCG against DDX51

>  <READOUT NUMBER>
1.06

$$$$
>  <SEQUENCE>
UUGAGGUUACUGGAGCUGC against ZNF683

>  <READOUT NUMBER>
-0.208

$$$$
>  <SEQUENCE>
AUAGUAAUCAUCCAGAGCA against ARHGEF35

>  <READOUT NUMBER>
-0.685

$$$$
>  <SEQUENCE>
UGCAGUAAACAUUUCGUUG against ADAMTS9

>  <READOUT NUMBER>
-0.75

$$$$
>  <SEQUENCE>
UGGUUGAUCAAUGCGAUAG against C11orf54

>  <READOUT NUMBER>
-0.331

$$$$
>  <SEQUENCE>
UUUGUUGGGAUGUUGGGUG against SPATA12

>  <READOUT NUMBER>
-2.1

$$$$
>  <SEQUENCE>
AUUGCUACUGAUAUAAGCC against DICER1

>  <READOUT NUMBER>
-0.452

$$$$
>  <SEQUENCE>
AAACUGCUUCCGGACAUUG against ACAD8

>  <READOUT NUMBER>
-1.71

$$$$
>  <SEQUENCE>
UCUCGAGUUAUGUGGUUGG against RAD51D

>  <READOUT NUMBER>
0.265

$$$$
>  <SEQUENCE>
UCAUGGGACGGCAUAACUG against SPDYE3

>  <READOUT NUMBER>
-0.601

$$$$
>  <SEQUENCE>
UUUGAGGAAAGGAACUGCC against FAM228A

>  <READOUT NUMBER>
0.28

$$$$
>  <SEQUENCE>
UAUCUUUAAAGUGUAUCUA against FAM230B

>  <READOUT NUMBER>
0.596

$$$$
